These entries and their values trace back to patent US20090175860A1.

Molecular target: T1, cynomolgus c-Met on CHO cells (cynomolgus, UniProt A0A2K5UM36 25-1381, The natural precursor is cleaved into disulfide-linked alpha and beta subunits. It is given here as one mature chain, following the entry's CHAIN feature.)
T1 construct: also called cyno c-Met; CHO-cMet cyno
T1 sequence (A0A2K5UM36 entry or part of it limits assumed): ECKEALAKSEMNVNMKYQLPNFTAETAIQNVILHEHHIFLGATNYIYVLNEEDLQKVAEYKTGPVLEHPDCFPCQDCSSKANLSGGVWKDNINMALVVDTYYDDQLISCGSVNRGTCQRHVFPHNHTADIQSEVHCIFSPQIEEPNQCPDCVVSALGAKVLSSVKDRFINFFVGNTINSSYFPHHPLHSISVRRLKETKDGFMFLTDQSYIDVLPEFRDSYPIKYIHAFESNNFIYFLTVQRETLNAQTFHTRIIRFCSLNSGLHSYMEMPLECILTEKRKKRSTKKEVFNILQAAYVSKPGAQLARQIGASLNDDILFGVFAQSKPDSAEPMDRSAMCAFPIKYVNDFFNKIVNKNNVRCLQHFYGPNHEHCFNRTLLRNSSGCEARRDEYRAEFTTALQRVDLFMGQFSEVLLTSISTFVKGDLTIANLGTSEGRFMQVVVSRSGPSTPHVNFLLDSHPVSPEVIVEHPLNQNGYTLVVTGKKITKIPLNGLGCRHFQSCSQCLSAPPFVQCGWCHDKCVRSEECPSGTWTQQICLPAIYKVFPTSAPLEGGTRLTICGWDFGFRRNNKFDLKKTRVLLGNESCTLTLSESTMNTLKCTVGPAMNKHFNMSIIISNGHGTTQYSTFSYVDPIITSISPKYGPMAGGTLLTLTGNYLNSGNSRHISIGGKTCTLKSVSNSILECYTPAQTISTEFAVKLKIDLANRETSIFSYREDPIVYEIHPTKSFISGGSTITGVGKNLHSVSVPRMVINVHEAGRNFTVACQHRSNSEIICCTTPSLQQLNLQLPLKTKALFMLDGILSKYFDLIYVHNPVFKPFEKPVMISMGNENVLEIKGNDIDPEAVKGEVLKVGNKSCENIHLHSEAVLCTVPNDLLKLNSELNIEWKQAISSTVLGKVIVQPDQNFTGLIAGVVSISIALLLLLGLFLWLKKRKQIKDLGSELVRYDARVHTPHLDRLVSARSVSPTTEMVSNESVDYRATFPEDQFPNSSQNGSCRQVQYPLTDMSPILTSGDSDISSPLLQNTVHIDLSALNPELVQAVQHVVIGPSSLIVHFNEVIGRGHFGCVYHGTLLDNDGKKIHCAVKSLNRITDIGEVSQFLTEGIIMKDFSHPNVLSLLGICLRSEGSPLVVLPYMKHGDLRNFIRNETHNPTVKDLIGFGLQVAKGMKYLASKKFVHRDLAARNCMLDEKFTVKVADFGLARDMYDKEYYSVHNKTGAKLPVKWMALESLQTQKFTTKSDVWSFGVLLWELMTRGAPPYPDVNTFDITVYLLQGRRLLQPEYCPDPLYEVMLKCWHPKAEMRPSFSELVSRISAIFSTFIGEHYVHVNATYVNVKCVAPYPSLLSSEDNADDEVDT
Assay: flow cytometry, Fab on CHO-cyno c-Met cells
pKd: −log10 of the molar value.
This section presents binders with their documented pKd values.

Binder | pKd
04536 (parental anti-cMet Fab antibody) (Fab, V domains shown, carries two C-terminal tags (FLAG and 6xHis)) VH: QVQLVQSGAEVKKPGASVKVSCKASGYTFTGYYMNWVRQAPGQGLEWMGIINPWTGNTNYAQKFQGRVTMTRDTSISTAYMELSSLRSEDTAVYYCARDPGFFYYTPSDLWGQGTLVTVSS VL: DIELTQPPSVSVAPGQTARISCSGDSIGNKYVHWYQQKPGQAPVLVIYADSDRPSGIPERFSGSNSGNTATLTISGTQAEDEADYYCQAYDSSMLRVFGGGTKLTVLG | 6.64
04687 (parental anti-cMet Fab antibody) (Fab, V domains shown, carries two C-terminal tags (FLAG and 6xHis)) VH: QVQLVQSGAEVKKPGSSVKVSCKASGGTFSSYAISWVRQAPGQGLEWMGGIDPFGTANYAQKFQGRVTITADESTSTAYMELSSLRSEDTAVYYCARVYQDVWGQGTLVTVSS VL: DIVMTQSPDSLAVSLGERATINCRSSQSILYGINNNFLGWYQQKPGQPPKLLIYWASTRESGVPDRFSGSGSGTDFTLTISSLQAEDVAVYYCQQYYNHPHTFGQGTKVEIKR | 8.89
04537 (parental anti-cMet Fab antibody) (Fab, V domains shown, carries two C-terminal tags (FLAG and 6xHis)) VH: QVQLVQSGAEVKKPGESLKISCKGSGYSFSNYWIGWVRQMPGKGLEWMGFIFPDTSYTRYSPSFQGQVTISADKSISTAYLQWSSLKASDTAMYYCARVKLITDYWGQGTLVTVSS VL: DIELTQPPSVSVAPGQTARISCSGDSLRSYFVSWYQQKPGQAPVLVIYDDDDRPSGIPERFSGSNSGNTATLTISGTQAEDEADYYCASWDTLSDVEVFGGGTKLTVLG | 7.90
04541 (parental anti-cMet Fab antibody) (Fab, V domains shown, carries two C-terminal tags (FLAG and 6xHis)) VH: QVQLQESGPGLVKPGETLSLTCTVSGGSISSSSYYWNWIRQAPGKGLEWIGEIYFGWTYYNPSLKGRVTISVDTSKNQFSLKLSSVTAEDTAVYYCARGYEFHGYTTFDYWGQGTLVTVSS VL: DIELTQPPSVSVAPGQTARISCSGDNIGSYYVYWYQQKPGQAPVLVIYDDNDRPSGIPERFSGSNSGNTATLTISGTQAEDEADYYCQSYDFPSIVFGGGTKLTVLG | 9.22
